# credit: PubChem BioAssay (NCI)

# System: A498 renal
# experimental_protocol: NCI-60 one-dose screen, 48 h
# experimental_parameters: 10 µM unless noted
About 83,000 compounds went through this panel and 20% of them were active in at least one assay; those are over-represented in the sample as a whole. The source made the active and inactive calls. The calls were made as follows: active = growth percent below 10; inactive = the rest.
Please reply with one of these outcomes: active, inactive

Task: Please indicate how the test categorized O=C(/C=C/c1ccccc1)c1cccc(O)c1 .
Output: inactive

---

# Tested on: MALME-3M melanoma
# experimental_protocol: NCI-60 one-dose screen, 48 h (100 = growth as untreated, 0 = no growth, -100 = all killed)
# experimental_parameters: 10 µM unless noted
About 83,000 compounds went through this panel and 20% of them were active in at least one assay; those are over-represented in the sample as a whole. The source made the active and inactive calls. Rule for the calls: active = growth percent below 10; inactive = the rest.
reported_property: growth

structure_smiles=O=C(O)CC1CCN(c2ccc3nnc(Cl)n3n2)CC1 reported_property=growth experimental_value="102% (inactive)"
structure_smiles=CN1CCN(c2ccc(Nc3nc(NCCNC(=O)c4ccc(F)cc4)c4sccc4n3)cc2)CC1 reported_property=growth experimental_value="-54.2% (active)"
structure_smiles=CN1CCN(Cc2ccc(NC(=O)c3cncc(C#Cc4cnc5ccc(N)nn45)c3)cc2C(F)(F)F)CC1 reported_property=growth experimental_value="-36.6% (active)"

Task: For the molecule CN1CCN(Cc2ccc(NC(=O)c3cncc(C#Cc4cnc5ccc(O[C@@H]6CCOC6)nn45)c3)cc2C(F)(F)F)CC1 , give its measured growth value.
Output: -89.6% (active)

Task: For the molecule Cc1cc(C)cc(NC2=C(Cl)C(=O)c3nc(C)ccc3C2=O)c1 , give its measured growth value.
Output: 76.1% (inactive)

Task: For the molecule COc1ccc(-c2c3c(cn2Cc2cccc(OC)c2)-c2oncc2CCC3)cc1 , give its measured growth value.
Output: 95.6% (inactive)

Task: For the molecule CCOP(=O)(OCC)OC[C@]12CCC(C)(C)C[C@H]1C1=CC[C@@H]3[C@@]4(C)CC[C@H](OP(=O)(OCC)OCC)C(C)(C)[C@@H]4CC[C@@]3(C)[C@]1(C)CC2 , give its measured growth value.
Output: 62.6% (inactive)

Task: For the molecule C#C[C@]1(O)CC[C@H]2[C@@H]3CC=C4c5sc(N6CCN(C)CC6)nc5CC[C@]4(C)[C@H]3CC[C@@]21C , give its measured growth value.
Output: 56.9% (inactive)

---

Measured growth, listed per entry for reference.
# Tested on: 786-0 renal
# experimental_protocol: NCI-60 one-dose screen, 48 h (100 = growth as untreated, 0 = no growth, -100 = all killed)
# experimental_parameters: 10 µM unless noted
This is part of a sample that, as a whole, favours compounds with a hit. Of some 83,000 tested, about 20% had one in any assay.
Please give a number only; it is taken to be in %.

// known answers, use as guide
molecule=CCN(CC)CCOc1ccc(C(=C(c2ccccc2)C2CCCC2)c2ccc(OCCN(CC)CC)cc2)cc1 unit_descriptor=% experimental_value=62.6
molecule=CN1CCN(c2ccc(Nc3nc(NCCCNS(=O)(=O)c4ccc(F)cc4)c4sccc4n3)cc2)CC1 unit_descriptor=% experimental_value=3.97
molecule=Cc1cccc(N2CCN(C3=C(Cl)C(=O)c4ncccc4C3=O)CC2)c1 unit_descriptor=% experimental_value=104
molecule=Cn1cc(-c2nnc(N)nc2-c2c[nH]c3ccc(F)cc23)c2cc(Br)ccc21 unit_descriptor=% experimental_value=21.5
molecule="CCCCN1C(=O)/C(=c2\\sc3n(c2=O)C2C(NN=3)N(CC)C(=O)N2CC)c2cccc(C)c21 (centres undefined)" unit_descriptor=% experimental_value=63.3
molecule=CC1=C(C)C(=O)C(Nc2ccc(C)cc2)=C(Br)C1=O unit_descriptor=% experimental_value=106
molecule="CCS(=O)(=O)Nc1ccc(C(=O)CC2(O)C(=O)Nc3ccccc32)cc1 (centres undefined)" unit_descriptor=% experimental_value=108
molecule="C=C(C=O)[C@@H]1CC[C@]2(C(=O)O)CC[C@]3(C)C(CC[C@@H]4[C@@](C)(CCC#N)[C@H](C(=C)C=O)CC[C@]43C)[C@@H]12 (some centres undefined)" unit_descriptor=% experimental_value=59.7

Switching to the query record.
Task: For the molecule CCCC[n+]1ccc(SCC(=O)n2ccc3ccccc32)c2ccccc21 , give its measured growth value.
Output: 106

---

# System: NCI/ADR-RES ovarian
# experimental_protocol: NCI-60 one-dose screen, 48 h (100 = growth as untreated, 0 = no growth, -100 = all killed)
# experimental_parameters: 10 µM unless noted
This is part of a sample that, as a whole, favours compounds with a hit. Of some 83,000 tested, about 20% had one in any assay.
Measured growth, listed per entry for reference.
Please give a number only; it is taken to be in %.

// known answers, use as guide
molecule="COc1ccc(/C=N\\NC(=O)c2cnn(CC(O)c3ccccc3)c2N)cc1OCc1ccc(Cl)cc1 (stereo not given)" tgt="NCI/ADR-RES ovarian" experimental_value=72.2
molecule=CNC(=O)c1cc(N2CCc3cc(NC(=O)Nc4ccc(N5CCOCC5)c(C(F)(F)F)c4)ccc32)ccn1 tgt="NCI/ADR-RES ovarian" experimental_value=16.8
molecule=CCN(CC)CCOc1ccc(C(=C(C)Cc2ccc(OC)cc2)c2ccc(OCCN(CC)CC)cc2)cc1 tgt="NCI/ADR-RES ovarian" experimental_value=85.4

Task: For the molecule O=S(=O)(NCCCNc1nccc(-c2[nH]c(-c3ccccc3)nc2-c2ccc(F)c(O)c2)n1)c1ccccc1 , give its measured growth value.
Output: 108

Task: For the molecule C/C(=N/N)c1nnn(-c2ccc(Br)cc2)c1C , give its measured growth value.
Output: 104

---

# Test system: MCF7 breast
# experimental_protocol: NCI-60 one-dose screen, 48 h (100 = growth as untreated, 0 = no growth, -100 = all killed)
# experimental_parameters: 10 µM unless noted
The panel holds about 83,000 compounds, 20% with a hit somewhere; the sample as a whole holds those more often.
Tick criterion met if growth is 60% or greater. Tick criterion not met if growth is less than 60%.

Solved entries:
compound="Cc1[nH]c(C(=O)Nc2ccc(C(N)=O)cc2N2CCOC(C)C2)c(Cl)c1Cl (centres undefined)" class_name="criterion met"
compound=Cc1cc(NS(=O)(=O)c2ccc(NC(=O)CSc3nc4ccccc4c(=O)n3-c3ccccc3)cc2)no1 class_name="criterion met"
compound=O=c1nc(Nc2ccc([N+](=O)[O-])cc2O)sc2ccccc12 class_name="criterion not met"
compound=O=C(CSc1nc2ccccc2c(=O)n1CCc1ccccc1)Nc1ccc(S(=O)(=O)Nc2ccc(Cl)nn2)cc1 class_name="criterion met"
compound="CCCCCN1C(=O)/C(=c2\\sc3n(c2=O)C2C(NN=3)N(CC)C(=O)N2CC)c2cccc(C)c21 (centres undefined)" class_name="criterion not met"
compound="Cc1[nH]c(C(=O)Nc2ccccc2OCc2cccc(C(=O)NC3CCCNC3)c2)c(Cl)c1Cl (centres undefined)" class_name="criterion not met"
compound=O=C(CSc1nc2ccccc2c(=O)n1-c1ccccc1)N/N=C/c1ccc(Oc2ccc(Cl)cc2)cc1 class_name="criterion met"
compound="CCCCN1C(=O)/C(=c2\\sc3n(c2=O)C2C(NN=3)N(CC)C(=O)N2CC)c2cc(C)ccc21 (centres undefined)" class_name="criterion met"

Task: Is growth at least 60%? Consider O=S(=O)(Oc1ccc(-c2cn3ccoc3n2)cc1)C1CCCCC1
Output: criterion met

---

# Test system: DU-145 prostate
# experimental_protocol: NCI-60 one-dose screen, 48 h (100 = growth as untreated, 0 = no growth, -100 = all killed)
# experimental_parameters: 10 µM unless noted
This is part of a sample that, as a whole, favours compounds with a hit. Of some 83,000 tested, about 20% had one in any assay.
Could you mark each record true (1) if its growth falls strictly under 80%, and false (0) if it equals or exceeds it?

Solved entries:
molecule="C=C(C=O)[C@@H]1CC[C@]2(C(=O)O)CC[C@]3(C)C(CC[C@@H]4[C@@](C)(CCC#N)[C@H](C(=C)C=O)CC[C@]43C)[C@@H]12 (some centres undefined)" class_name="true (1)"
molecule=COc1ccc(/C=N/NC(=O)c2c(N)nn(C)c2Nc2ccccc2)cc1 class_name="true (1)"
molecule=C/C(=N\NC(N)=S)c1nnn(-c2ccc([N+](=O)[O-])cc2)c1C class_name="false (0)"
molecule=CNc1sc(S(=O)(=O)NC)nc1S(=O)(=O)c1ccc(C)cc1 class_name="false (0)"

Task: Hi there! Is growth for CN1CCN(c2ccc(Nc3nc(NCCNC(=O)c4ccc(F)cc4)c4sccc4n3)cc2)CC1 below 80%, do you know?
Output: false (0)

Task: Hi there! Is growth for O=C(CSc1nc2ccccc2c(=O)n1CCc1ccccc1)Nc1ccc(S(=O)(=O)Nc2ccc(Cl)nn2)cc1 below 80%, do you know?
Output: false (0)

Task: Hi there! Is growth for N#Cc1c(-c2cccs2)cc(-c2cnccn2)nc1SCC(=O)N/N=C/c1ccccc1 below 80%, do you know?
Output: true (1)

Task: Hi there! Is growth for O=C(O)CC1CCN(c2ccc3nnc(Cl)n3n2)CC1 below 80%, do you know?
Output: false (0)

Task: Hi there! Is growth for CC(Nc1c(C#N)cnc2ccc(-c3cncc(O)c3)cc12)c1ccccc1 (centres undefined) below 80%, do you know?
Output: true (1)

Task: Hi there! Is growth for CCCCN1C(=O)/C(=c2\sc3n(c2=O)C2C(NN=3)N(CC)C(=O)N2CC)c2cccc(C)c21 (centres undefined) below 80%, do you know?
Output: true (1)

Task: Hi there! Is growth for CC1=C(C)C(=O)C(Nc2cccc(C(=O)OC(C)(C)C)c2)=C(Cl)C1=O below 80%, do you know?
Output: false (0)

Task: Hi there! Is growth for Cc1ccc2c(n1)C(=O)C(Cl)=C(Nc1cccc(C)c1C)C2=O below 80%, do you know?
Output: true (1)

Task: Hi there! Is growth for CC(=O)c1c([Si](C)(C)C)c2cc(C#N)ccn2c1C(=O)c1ccc(Br)cc1 below 80%, do you know?
Output: false (0)

Task: Hi there! Is growth for COc1ccc(C(=NNS(=O)(=O)c2ccc(C)cc2)c2ccccc2)cc1OC below 80%, do you know?
Output: false (0)

Task: Hi there! Is growth for CCCCCCN1C=C/C(=C\C(=O)n2ccc3ccccc32)c2ccccc21 below 80%, do you know?
Output: true (1)

Task: Hi there! Is growth for CC(=O)OC[C@]12CC[C@@H](C(=O)/C=C/c3cccnc3)[C@@H]1[C@H]1CC[C@@H]3[C@@]4(C)CC[C@H](OC(C)=O)C(C)(C)[C@@H]4CC[C@@]3(C)[C@]1(C)CC2 below 80%, do you know?
Output: true (1)

Task: Hi there! Is growth for Cc1ccc(N2CCN(C3=C(Cl)C(=O)c4ncccc4C3=O)CC2)cc1 below 80%, do you know?
Output: true (1)

Task: Hi there! Is growth for CN1CCN(Cc2ccc(/C=N/Nc3ccnc4cc(Cl)ccc34)cc2)CC1 below 80%, do you know?
Output: true (1)
